Cited source: patent US10597388B2

tested on: ragweed (common ragweed, Ambrosia elatior); assay: Test A greenhouse herbicide test, pre- and postemergence; format: in vivo; conditions: Preemergence, 125 g ai/ha; 0 to 100 scale where 0 is no effect and 100 is complete control
Measurement label: Ragweed plant response rating
Please respond with just the number, no unit label.

Recorded Ragweed plant response rating, per entry:
>  <Compound>
CC(=O)Oc1c(C)nn(C)c(=O)c1-c1c(C)sc2ccc(C)cc12 [Compound 25]

>  <Measurement target>
ragweed (common ragweed, Ambrosia elatior)

>  <Ragweed plant response rating>
90

$$$$
>  <Compound>
CCc1nn(C)c(=O)c(-c2c(C)oc3ccccc23)c1O [Compound 117]

>  <Measurement target>
ragweed (common ragweed, Ambrosia elatior)

>  <Ragweed plant response rating>
0

$$$$
>  <Compound>
Cc1ccc2ccccc2c1-c1c(OC(=O)C2CC2)c(C)nn(C)c1=O [Compound 76]

>  <Measurement target>
ragweed (common ragweed, Ambrosia elatior)

>  <Ragweed plant response rating>
0

$$$$
>  <Compound>
Cc1nn(C)c(=O)c(-c2cccc3ccc(C#N)cc23)c1O [Compound 127]

>  <Measurement target>
ragweed (common ragweed, Ambrosia elatior)

>  <Ragweed plant response rating>
30

$$$$
>  <Compound>
Cc1nn(C)c(=O)c(-c2c(C)sc3ccc(Cl)cc23)c1O [Compound 104]

>  <Measurement target>
ragweed (common ragweed, Ambrosia elatior)

>  <Ragweed plant response rating>
90

$$$$

Quick note, Ragweed plant response rating for Cc1ccc2ccccc2c1-c1c(O)c(Cl)nn(C)c1=O [Compound 125] landed at 80

Quick note, Ragweed plant response rating for CC(=O)Oc1c(C#N)nn(C)c(=O)c1-c1c(C)ccc2ccccc12 [Compound 98] landed at 60

Quick note, Ragweed plant response rating for CC(=O)Oc1c(Br)nn(C)c(=O)c1-c1c(C)ccc2ccccc12 [Compound 129] landed at 90

Quick note, Ragweed plant response rating for Cc1nn(C)c(=O)c(-c2cc(F)cc3ccccc23)c1OS(C)(=O)=O [Compound 115] landed at 40

Quick note, Ragweed plant response rating for Cc1nn(C)c(=O)c(-c2ccc(F)c3ccccc23)c1OC(=O)CC(F)(F)F [Compound 123] landed at 60

Quick note, Ragweed plant response rating for COc1nn(C)c(=O)c(-c2c(C)sc3ccc(Cl)cc23)c1OS(C)(=O)=O [Compound 135] landed at 30

Quick note, Ragweed plant response rating for COc1nn(C)c(=O)c(-c2c(C)sc3ccc(Cl)cc23)c1O [Compound 100] landed at 40
